The entries below are paired with their reported log10 MIC.
System: Trichophyton mentagrophytes
Test Details: Antifungal activity against Trichophyton mentagrophytes
Format: functional
The common logarithm of MIC in µg/mL is what is listed.

Any idea what its log10 MIC is? The molecule is CC(C)Oc1ccc(Nc2nc(-c3c(Cl)cccc3Cl)cs2)cc1
1.48

Any idea what its log10 MIC is? The molecule is CCCc1ccc(Nc2nc(-c3c(Cl)cccc3Cl)cs2)cc1
-1.00

Any idea what its log10 MIC is? The molecule is Clc1ccc(Oc2nc(-c3c(Cl)cccc3Cl)cs2)cc1
0.00

Any idea what its log10 MIC is? The molecule is Clc1cccc(Cl)c1-c1csc(Nc2ccc(Br)cc2)n1
-1.52

Any idea what its log10 MIC is? The molecule is Clc1ccc(Nc2nc(-c3ccccc3Cl)cs2)cc1
-0.52

Any idea what its log10 MIC is? The molecule is Fc1cccc(F)c1-c1csc(Nc2ccc(Cl)cc2)n1
-0.52

Any idea what its log10 MIC is? The molecule is FC(F)(F)c1ccc(Nc2nc(-c3c(Cl)cccc3Cl)cs2)cc1
-1.52

Any idea what its log10 MIC is? The molecule is Clc1cccc(Cl)c1-c1csc(Nc2ccccc2)n1
0.00

Any idea what its log10 MIC is? The molecule is CS(=O)(=O)c1ccc(Nc2nc(-c3c(Cl)cccc3Cl)cs2)cc1
0.48

====

Test system: Trichophyton mentagrophytes
Test Details: Antifungal activity against Trichophyton mentagrophytes
Format: functional
The entries below are paired with their reported MIC.
Numbers only; they are read as µg/mL.

1. Clc1ccc(Nc2nc(-c3c(Cl)cccc3Cl)cs2)c(Cl)c1 0.3
2. Clc1ccc(Nc2nc(-c3c(Cl)cccc3Cl)cs2)cc1Cl 0.1
3. Clc1ccc(Nc2nc(-c3ccccc3)cs2)cc1 3
4. FC(F)(F)Oc1ccc(Nc2nc(-c3c(Cl)cccc3Cl)cs2)cc1 0.03

Any idea what its MIC is? The molecule is CC(C)c1ccc(Nc2nc(-c3c(Cl)cccc3Cl)cs2)cc1
0.3

Any idea what its MIC is? The molecule is Clc1ccc(Nc2nc(-c3cccc(Cl)c3Cl)cs2)cc1
3

Any idea what its MIC is? The molecule is Cc1cccc(C)c1-c1csc(Nc2ccc(Cl)cc2)n1
0.1

====

The entries below are paired with their reported Activity.
System: Trichophyton mentagrophytes
Test Details: Antifungal activity against Trichophyton mentagrophytes assessed as accumulation of squalene using [2-14C]acetate at 1 x 10^-8 M
Type: functional
Numbers only; they are read as %.

Answered examples (3):
Compound	Endpoint Unit	Endpoint Value
Clc1ccc(Nc2nc(-c3cccc4ccccc34)cs2)cc1	%	11.7
Cc1cccc(N(C)C(=S)Oc2ccc3ccccc3c2)c1 [TOLNAFTATE]	%	72.1
COc1cccc(OC)c1-c1csc(Nc2ccc(Cl)cc2)n1	%	70.6

// next item, Activity requested
Any idea what its Activity is? The compound is Clc1ccc(Nc2nc(-c3c(Cl)cccc3Cl)cs2)cc1
67.4

====

Tested on: Botrytis cinerea
Test Details: Antifungal activity against Botryotinia fuckeliana assessed as accumulation of squalene using [2-14C]acetate at 3 x 10^-5 M
Format: functional
# if measured Activity < 10%: MET  # else: NOT MET

For orientation, consider the following solved cases.
1) Clc1ccc(Nc2nc(-c3ccccc3)cs2)cc1 NOT MET
2) Clc1ccc(Nc2nc(-c3ccccc3Cl)cs2)cc1 NOT MET
3) Clc1ccc(Nc2nc(-c3cccc(Cl)c3)cs2)cc1 MET
4) Clc1ccc(Nc2nc(-c3ccc(Cl)cc3)cs2)cc1 MET

Does the reported Activity of the following compound sit strictly below 10%? CN(c1ccc(Cl)cc1)c1nc(-c2c(Cl)cccc2Cl)cs1
MET

Does the reported Activity of the following compound sit strictly below 10%? Clc1ccc(Oc2nc(-c3c(Cl)cccc3Cl)cs2)cc1
NOT MET

====

System: Trichophyton mentagrophytes
Test Details: Antifungal activity against Trichophyton mentagrophytes
Format: functional
Measured Endpoint: MIC (µg/mL)
Numbers only; they are read as µg/mL.

Answered examples (10):
Compound	MIC [µg/mL]
COc1ccc(Br)c(OC)c1-c1csc(Nc2ccc(Cl)cc2)n1	3
Fc1ccc(Nc2nc(-c3c(Cl)cccc3Cl)cs2)cc1	0.1
Clc1ccc(Nc2nc(-c3cccc4ccccc34)cs2)cc1	0.1
Clc1cccc(Cl)c1-c1csc(Nc2ccc(I)cc2)n1	0.03
C[S+]([O-])c1ccc(Nc2nc(-c3c(Cl)cccc3Cl)cs2)cc1 (centres undefined)	30
Clc1ccc(Nc2nc(-c3c(Cl)cccc3Cl)cs2)cc1	0.03
O=[N+]([O-])c1ccc(Nc2nc(-c3c(Cl)cccc3Cl)cs2)cc1	30
CN(c1ccc(Cl)cc1)c1nc(-c2c(Cl)cccc2Cl)cs1	3
COc1cccc(OC)c1-c1csc(Nc2ccc(Cl)cc2)n1	0.03
CSc1ccc(Nc2nc(-c3c(Cl)cccc3Cl)cs2)cc1	0.1

// next item, MIC requested
Any idea what its MIC is? The compound is Clc1ccc(Nc2nc(-c3c(Cl)cc(Cl)cc3Cl)cs2)cc1
0.1

====

The entries below are paired with their reported MIC.
Test system: Trichophyton mentagrophytes
Test Details: Antifungal activity against Trichophyton mentagrophytes
Assay type: functional
Numbers only; they are read as µg/mL.

Answered examples (2):
1) COc1ccc(Nc2nc(-c3c(Cl)cccc3Cl)cs2)cc1 0.1
2) Clc1ccc(Nc2nc(-c3c(Cl)cccc3Cl)ns2)cc1 0.1

// next item, MIC requested
Any idea what its MIC is? The compound is Fc1cc(Cl)ccc1Nc1nc(-c2c(Cl)cccc2Cl)cs1
0.1

====

The entries below are paired with their reported MIC.
Test system: Trichophyton mentagrophytes
Test Details: Antifungal activity against Trichophyton mentagrophytes
Type: functional
Numbers only; they are read as µg/mL.

Answered examples (3):
1) Clc1cccc(Nc2nc(-c3c(Cl)cccc3Cl)cs2)c1 0.1
2) Cc1ccc(Nc2nc(-c3c(Cl)cccc3Cl)cs2)cc1 0.1
3) CN(C)c1ccc(Nc2nc(-c3c(Cl)cccc3Cl)cs2)cc1 1

Any idea what its MIC is? The compound is Clc1ccc(Nc2nc(-c3cccc(Cl)c3)cs2)cc1
3

====

System: Trichophyton mentagrophytes
Test Details: Antifungal activity against Trichophyton mentagrophytes
Type: functional
The entries below are paired with their reported MIC.

1. CC(C)(C)c1ccc(Nc2nc(-c3c(Cl)cccc3Cl)cs2)cc1 > 100 µg/mL
2. Clc1ccc(Cc2nc(-c3c(Cl)cccc3Cl)cs2)cc1 > 100 µg/mL

// next item, MIC requested
Any idea what its MIC is? The molecule is Clc1ccc(Nc2nc(-c3ccc4ccccc4c3)cs2)cc1
> 100 µg/mL

Cited source: ChEMBL document CHEMBL3046425
